# Test Target: human ETB receptor (Homo sapiens, UniProt P24530)
# Construct: expressed in transfected cells; host or cells: COS7 cells
# Sequence (P24530 27-442): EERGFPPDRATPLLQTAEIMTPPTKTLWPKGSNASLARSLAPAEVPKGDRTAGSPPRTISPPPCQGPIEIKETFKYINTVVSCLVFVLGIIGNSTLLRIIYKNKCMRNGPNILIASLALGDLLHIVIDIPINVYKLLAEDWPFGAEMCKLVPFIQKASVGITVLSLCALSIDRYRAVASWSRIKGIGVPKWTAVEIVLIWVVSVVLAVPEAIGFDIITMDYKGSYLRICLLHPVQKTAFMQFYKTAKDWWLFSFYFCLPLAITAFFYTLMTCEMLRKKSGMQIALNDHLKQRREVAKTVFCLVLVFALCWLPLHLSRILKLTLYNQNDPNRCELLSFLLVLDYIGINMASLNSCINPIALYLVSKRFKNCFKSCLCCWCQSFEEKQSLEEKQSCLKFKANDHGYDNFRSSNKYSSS
# Run Description: Binding Test #2: inhibition of 125I-ET-1 binding to ETB receptors (transfected COS7 cell membranes)
# Condition Label: Table 1; incubation at 4° C.; read-out: ETB
pIC50: −log10 of the molar value.
Property Label: pIC50

Reference set, count: 8
compound=Cc1noc(NS(=O)(=O)c2ccsc2C(=O)Nc2ccc(C(C)C)cc2)c1Br property_label=pIC50 val=5.95
compound="CCC(C)c1ccc(NC(=O)c2sccc2S(=O)(=O)Nc2onc(C)c2Br)cc1 (stereo not drawn)" property_label=pIC50 val=5.75
compound=Cc1noc(NS(=O)(=O)c2ccc(CNC(=O)c3ccc(Cl)cc3)s2)c1Br property_label=pIC50 val=5.59
compound="Cc1noc(NS(=O)(=O)c2sccc2CC=Cc2cc3c(cc2COC2CCCCO2)OCO3)c1Br (stereo not drawn)" property_label=pIC50 val=5.38
compound=Cc1noc(NS(=O)(=O)c2cccn2-c2ccc(C(C)C)cc2)c1Br property_label=pIC50 val=6.78
compound=Cc1noc(NS(=O)(=O)c2ccc(-c3ccccc3)o2)c1Br property_label=pIC50 val=5.61
compound=Cc1noc(NS(=O)(=O)c2ccsc2C(=O)NCc2ccccc2)c1Br property_label=pIC50 val=4.90
compound=Cc1noc(NS(=O)(=O)c2cc3ccccc3o2)c1C property_label=pIC50 val=4.42

A = Cc1noc(NS(=O)(=O)c2ccsc2C(=O)Nc2ccc(-c3ccccc3)cc2)c1Br
B = COc1ccccc1NC(=O)c1sccc1S(=O)(=O)Nc1onc(C)c1Br
Problem: Between item A and item B , which reported pIC50 is smaller? State your choice using its label.
Solution: B
(B: 4.88, A: 6.04)
